Taken from ChEMBL document CHEMBL5505975.

# assay_procedure: Cytotoxicity against human L02 cells assessed as reduction in cell viability incubated for 96 hrs by MTT assay
# Format: toxicity, cell-based
Measured IC50 at 96 h by item
Write down the numeric answer in µM and omit the unit.

>>> observed("CCCC(=O)NC(Nc1nc(Nc2ccc(C(F)(F)F)cc2)c2cc[nH]c2n1)C(Cl)(Cl)Cl (stereo not given)")
10.2
>>> observed("CCC(=O)NC(Nc1nc(Nc2cc(F)c(OC)c(F)c2)c2cc[nH]c2n1)C(Cl)(Cl)Cl (stereo not given)")
14.5
>>> observed("CCC(=O)NC(Nc1nc(Nc2ccc(C(F)(F)F)cc2)c2cc[nH]c2n1)C(Cl)(Cl)Cl (stereo not given)")
12.8
>>> observed("O=C(NC(Nc1nc(Nc2ccc(C(F)(F)F)cc2)c2cc[nH]c2n1)C(Cl)(Cl)Cl)C1CCCCC1 (stereo not given)")
11.6
>>> observed("CCC(=O)NC(Nc1nc(Nc2cc(OC)c(OC)c(OC)c2)c2cc[nH]c2n1)C(Cl)(Cl)Cl (stereo not given)")
9.01
>>> observed("CCCCCC(=O)NC(Nc1nc(Nc2cc(OC)c(OC)c(OC)c2)c2cc[nH]c2n1)C(Cl)(Cl)Cl (stereo not given)")
12.3
>>> observed("CCC(=O)NC(n1cnc2c(Nc3cc(OC)c(OC)c(OC)c3)nc(N)nc21)C(Cl)(Cl)Cl (stereo not given)")
14.7
>>> observed("O=C(NC(Nc1nc(Nc2ccc(C(F)(F)F)cc2)c2cc[nH]c2n1)C(Cl)(Cl)Cl)C1CC1 (stereo not given)")
16.1
>>> observed("COc1cc(Nc2nc(NC(NC(=O)C3CCCCC3)C(Cl)(Cl)Cl)nc3[nH]ccc23)cc(OC)c1OC (stereo not given)")
14
>>> observed("CCC(=O)NC(Nc1nc(Nc2ccc(C(F)(F)F)cc2F)c2cc[nH]c2n1)C(Cl)(Cl)Cl (stereo not given)")
14

Query :: Specify measured IC50 at 96 h for CCC(=O)NC(Nc1nc(Nc2ccc(C(F)(F)F)cc2Cl)c2cc[nH]c2n1)C(Cl)(Cl)Cl (stereo not given) .
Result :: 14.5

Query :: Specify measured IC50 at 96 h for CCC(=O)NC(Nc1nc(Nc2ccc(OC(F)(F)F)cc2)c2cc[nH]c2n1)C(Cl)(Cl)Cl (stereo not given) .
Result :: 25.3

Query :: Specify measured IC50 at 96 h for CCCC(=O)NC(Nc1nc(Nc2cc(OC)c(OC)c(OC)c2)c2cc[nH]c2n1)C(Cl)(Cl)Cl (stereo not given) .
Result :: 14.4

Query :: Specify measured IC50 at 96 h for CCCCC(=O)NC(Nc1nc(Nc2ccc(C(F)(F)F)cc2)c2cc[nH]c2n1)C(Cl)(Cl)Cl (stereo not given) .
Result :: 8.85

Query :: Specify measured IC50 at 96 h for CCC(=O)NC(Nc1nc(Nc2ccc(OC(F)(F)F)c(F)c2)c2cc[nH]c2n1)C(Cl)(Cl)Cl (stereo not given) .
Result :: 7.55

Query :: Specify measured IC50 at 96 h for CCC(=O)NC(n1cnc2c(Nc3ccc(C(F)(F)F)cc3)nc(N)nc21)C(Cl)(Cl)Cl (stereo not given) .
Result :: 12.3

Query :: Specify measured IC50 at 96 h for CCCCCC(=O)NC(Nc1nc(Nc2ccc(C(F)(F)F)cc2)c2cc[nH]c2n1)C(Cl)(Cl)Cl (stereo not given) .
Result :: 14.4

====

# System: MDA-MB-231
# assay_procedure: Antiproliferative activity against human MDA-MB-231 cells assessed as reduction in cell viability incubated for 96 hrs by MTT assay
# condition_parameters: MDA-MB-231, 96 h
measured_parameter: log10(IC50) (log10 of the value in µM)
Hey, these are logged values: log10 of IC50, µM being the unit before logging.

Below: 5 compounds and their reported log10(IC50).
>>> observed("CCCCCC(=O)NC(Nc1nc(Nc2ccc(C(F)(F)F)cc2)c2cc[nH]c2n1)C(Cl)(Cl)Cl (configuration not stated)")
0.79
>>> observed("CCC(=O)NC(Nc1nc(Nc2ccc(C(F)(F)F)cc2Cl)c2cc[nH]c2n1)C(Cl)(Cl)Cl (configuration not stated)")
1.10
>>> observed("Cc1ncc([N+](=O)[O-])n1CCOC(=O)NC(Nc1ncccn1)C(Cl)(Cl)Cl (configuration not stated)")
2.14
>>> observed("CCC(=O)NC(Nc1nc(Nc2ccc(OC(F)(F)F)cc2)c2cc[nH]c2n1)C(Cl)(Cl)Cl (configuration not stated)")
1.21
>>> observed("CCC(=O)NC(Nc1nc(Nc2ccc(OC(F)(F)F)c(F)c2)c2cc[nH]c2n1)C(Cl)(Cl)Cl (configuration not stated)")
1.00

Query :: State the measured log10(IC50) (MDA-MB-231) of CCC(=O)NC(n1cnc2c(Nc3ccc(C(F)(F)F)cc3)nc(N)nc21)C(Cl)(Cl)Cl (configuration not stated)
Result :: 0.98

Query :: State the measured log10(IC50) (MDA-MB-231) of O=C(NC(Nc1nc(Nc2ccc(C(F)(F)F)cc2)c2cc[nH]c2n1)C(Cl)(Cl)Cl)C1CCCCC1 (configuration not stated)
Result :: 0.94

Query :: State the measured log10(IC50) (MDA-MB-231) of CCC(=O)NC(Nc1nc(Nc2cc(F)c(OC)c(F)c2)c2cc[nH]c2n1)C(Cl)(Cl)Cl (configuration not stated)
Result :: 0.91

Query :: State the measured log10(IC50) (MDA-MB-231) of CCC(=O)NC(n1cnc2c(Nc3cc(OC)c(OC)c(OC)c3)nc(N)nc21)C(Cl)(Cl)Cl (configuration not stated)
Result :: 0.16

Query :: State the measured log10(IC50) (MDA-MB-231) of CCCC(=O)NC(Nc1nc(Nc2ccc(C(F)(F)F)cc2)c2cc[nH]c2n1)C(Cl)(Cl)Cl (configuration not stated)
Result :: 0.86

Query :: State the measured log10(IC50) (MDA-MB-231) of CCCCC(=O)NC(Nc1nc(Nc2ccc(C(F)(F)F)cc2)c2cc[nH]c2n1)C(Cl)(Cl)Cl (configuration not stated)
Result :: 0.87

Query :: State the measured log10(IC50) (MDA-MB-231) of CCC(=O)NC(Nc1nc(Nc2ccc(C(F)(F)F)cc2F)c2cc[nH]c2n1)C(Cl)(Cl)Cl (configuration not stated)
Result :: 1.10

Query :: State the measured log10(IC50) (MDA-MB-231) of CCC(=O)NC(Nc1nc(Nc2ccc(C(F)(F)F)nc2)c2cc[nH]c2n1)C(Cl)(Cl)Cl (configuration not stated)
Result :: 1.30

Query :: State the measured log10(IC50) (MDA-MB-231) of CCC(=O)NC(Nc1nc(Nc2cc(OC)c(OC)c(OC)c2)c2cc[nH]c2n1)C(Cl)(Cl)Cl (configuration not stated)
Result :: 0.94

====

# Tested on: MDA-MB-231
# assay_procedure: Antiproliferative activity against human MDA-MB-231 cells assessed as reduction in cell viability incubated for 96 hrs by MTT assay
# condition_parameters: MDA-MB-231, 96 h
measured_parameter: pIC50
Please report pIC50 as the negative decimal logarithm of the molar concentration, giving only the number.

>>> observed("COc1cc(Nc2nc(NC(NC(=O)C3CCCCC3)C(Cl)(Cl)Cl)nc3[nH]ccc23)cc(OC)c1OC (stereo not drawn)")
4.94
>>> observed("CCCCCC(=O)NC(Nc1nc(Nc2cc(OC)c(OC)c(OC)c2)c2cc[nH]c2n1)C(Cl)(Cl)Cl (stereo not drawn)")
5.08
>>> observed("O=C(NC(Nc1nc(Nc2ccc(C(F)(F)F)cc2)c2cc[nH]c2n1)C(Cl)(Cl)Cl)C1CC1 (stereo not drawn)")
5.22
>>> observed("CCCC(=O)NC(Nc1nc(Nc2cc(OC)c(OC)c(OC)c2)c2cc[nH]c2n1)C(Cl)(Cl)Cl (stereo not drawn)")
5.00
>>> observed("CCCCC(=O)NC(Nc1nc(Nc2cc(OC)c(OC)c(OC)c2)c2cc[nH]c2n1)C(Cl)(Cl)Cl (stereo not drawn)")
4.98

Query :: Specify measured pIC50 for CCC(=O)NC(Nc1nc(Nc2ccc(C(F)(F)F)cc2)c2cc[nH]c2n1)C(Cl)(Cl)Cl (stereo not drawn) .
Result :: 5.11

====

# target_desc: Cell division cycle protein 20 homolog (Homo sapiens, UniProt Q12834)
# Sequence (Q12834 whole entry): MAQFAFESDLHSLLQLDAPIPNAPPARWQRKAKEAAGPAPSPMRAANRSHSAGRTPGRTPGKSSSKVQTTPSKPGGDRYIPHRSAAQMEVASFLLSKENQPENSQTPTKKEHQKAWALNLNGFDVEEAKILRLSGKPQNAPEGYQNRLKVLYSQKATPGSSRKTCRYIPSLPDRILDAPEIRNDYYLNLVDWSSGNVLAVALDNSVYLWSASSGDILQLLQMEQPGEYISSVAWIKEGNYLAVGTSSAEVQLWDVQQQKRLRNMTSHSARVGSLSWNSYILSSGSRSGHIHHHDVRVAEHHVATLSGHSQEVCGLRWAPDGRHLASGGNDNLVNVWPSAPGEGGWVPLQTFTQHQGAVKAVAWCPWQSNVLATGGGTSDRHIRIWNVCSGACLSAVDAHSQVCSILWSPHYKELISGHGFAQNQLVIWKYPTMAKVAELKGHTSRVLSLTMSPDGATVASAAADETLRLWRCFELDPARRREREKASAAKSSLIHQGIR
measured_parameter: pKd
Please report pKd as the negative decimal logarithm of the molar concentration, giving only the number.

Query :: State the measured pKd (Cell division cycle protein 20 homolog (Homo sapiens, UniProt Q12834)) of Cc1ncc([N+](=O)[O-])n1CCOC(=O)NC(Nc1ncccn1)C(Cl)(Cl)Cl (stereo unspecified)
Result :: 3.76
